Tested on: Mus musculus
Experiment: Compound was tested in vivo for its ability to inhibit DTH(delayed type hypersensitivity ) in mouse at a concentration of 30 mg/kg
Type: functional
# maps each entry to its inhibition in vivo at 30 mg/kg
Reply with just the number (in %).

[[record]]
molecule = "C=CC/C(O)=C(\\C#N)C(=O)Nc1ccc(C(F)(F)F)cc1"
recorded_endpoint = "inhibition in vivo at 30 mg/kg"
recorded_number = 75

[[record]]
molecule = "N#C/C(C(=O)Nc1cccc(C(F)(F)F)c1)=C(/O)C1CC1"
recorded_endpoint = "inhibition in vivo at 30 mg/kg"
recorded_number = 41

[[record]]
molecule = "N#C/C(C(=O)Nc1ccc([S+]([O-])C(F)(F)F)cc1)=C(/O)C1CC1 (stereo not drawn)"
recorded_endpoint = "inhibition in vivo at 30 mg/kg"
recorded_number = 25

[[record]]
molecule = "N#C/C(C(=O)Nc1ccc(Br)cc1)=C(/O)C1CC1"
recorded_endpoint = "inhibition in vivo at 30 mg/kg"
recorded_number = 64

[[record]]
molecule = "N#C/C(C(=O)Nc1ccc(C#N)cc1)=C(/O)C1CC1"
recorded_endpoint = "inhibition in vivo at 30 mg/kg"
recorded_number = 73


Recorded inhibition in vivo at 30 mg/kg (molecule `N#C/C(C(=O)Nc1ccccc1)=C(/O)C1CC1` ): 25

Per the records, this molecule ( `N#C/C(C(=O)Nc1ccc(S(=O)(=O)C(F)(F)F)cc1)=C(/O)C1CC1` ) has inhibition in vivo at 30 mg/kg equal to 43

# molecule `N#C/C(C(=O)Nc1ccc(SC(F)(F)F)cc1)=C(/O)C1CC1` ; its inhibition in vivo at 30 mg/kg = 39
